Test: Human HepG2 cell viability assay in 384 well format
Assay type: toxicity, cell-based
Parameters: dose 125 nL, time 70.5 hour; concentration not given beside the values
Conditions: HepG2 cells, read-out: Inhibition
property: cytotoxicity at 70.5 h (%)

* Cn1cc(C(=O)NCC2CCN(C(=O)NC3CC3)CC2)cn1 | -19.1
* Cc1cc(=O)n2ncnc2n1CC(O)c1ccccc1F (stereo unspecified) | -10.7
* COC(=O)c1ccc(OC)c(CN2CCN(CC(C)C)C(=O)C2C)c1 (stereo unspecified) | 26.8
* O=C(NCCCn1ccnc1)C1COCC(=O)N1Cc1ccccc1 (stereo unspecified) | -16
* Cc1nc(C2CCCN(C(=O)c3cc4c(s3)CCCC4)C2)no1 (stereo unspecified) | 5.35
* O=c1oc(-c2ccc(F)cc2)nn1CN1CCN(CC2CC2)CC1 | -21.3
* Cc1nn(C)c(N2CCOCC2)c1CNCc1cccnc1 | 24.7
* Cc1noc([C@H]2COC[C@H]3CN(C(=O)Cc4cccs4)C[C@H]32)n1 | -12.6
* CCCc1cnc(C)nc1NCCc1nc(C)cc(=O)[nH]1 | -9.64
* CCCn1cc(S(=O)(=O)N[C@H]2CN(CC(N)=O)C[C@@H]2C2CC2)cn1 | -9.29
* O=C(NCCN1CCOCC1)c1ccn(-c2ccc3ccccn23)n1 | -1.69

* * *

Assay: Human HepG2 cell viability assay in 384 well format
Format: toxicity, cell-based
Design: dose 125 nL, time 70.5 hour; concentration not given beside the values
Settings: HepG2 cells, read-out: Inhibition
# cytotoxicity at 70.5 h listing for each entry below
property: cytotoxicity at 70.5 h (%)

* Cc1cc(N2CCCC(O)(CN(C)C)CC2)nc(-c2ccccc2)n1 (configuration not stated) | -4.65
* CC(C)NC(=O)CCNC(=O)c1cnc(Cc2ccc(F)cc2)s1 | -4.85
* Cc1ccc(S(=O)(=O)N(C)Cc2nccs2)cc1N(C)C | 6.76
* CC(C)CCC(=O)NCc1ccc(N2CCCCC2)cc1 | -9.32
* Cc1ccc2ncn(CC(O)CN3CCC(C)CC3)c(=O)c2c1 (configuration not stated) | 19.7
* O=C1COc2ccc(C(=O)N3CCCC(n4ccnc4)C3)cc2N1 (configuration not stated) | 2.98
* Cc1nn(CC(=O)Nc2ccon2)cc1Br | -10.2
* CN1CCC(Cc2cccc(-c3cc(F)ccc3C(=O)O)n2)CC1 | -4.18
* Cc1cnn(CC2CCN(CC(O)COc3ccccc3)CC2)c1 (configuration not stated) | 4.78
* CCn1nc(C)c2nc(C(C)C)nc(N3CCC(O)CC3)c21 | -15.2
* O=C(Cc1cccs1)N1C[C@@H]2OCCN(CC3CCCC3)[C@@H]2C1 | -3.16
* CCc1nc(C2CCCN2C(=O)CCc2c(C)noc2Cl)no1 (configuration not stated) | -3.77

* * *

Overview of recorded cytotoxicity at 70.5 h for various compounds
Experiment: Human HepG2 cell viability assay in 384 well format
Format: toxicity, cell-based
Design: dose 125 nL, time 70.5 hour; concentration not given beside the values
Details: HepG2 cells, read-out: Inhibition
property: cytotoxicity at 70.5 h (%)

* COCc1cccc(S(=O)(=O)N2CCSCC2)c1 | 14
* Cn1cc(CCC(=O)N2CCN(Cc3ccncc3)CC2)cn1 | 2.28
* O=C1CCCC2=C1C(c1ccccc1Cl)Nc1nonc1N2 (stereo unspecified) | 0.0122
* CN(Cc1ccco1)c1ccc(C(=O)NCCCc2ccccn2)cn1 | 0.076
* CCSc1ccc(C(=O)N2CCCC2C(=O)N2CCOCC2)cn1 (stereo unspecified) | -12.5
* CCOc1ccc(NC(=O)N(CCN(C)C)C(C)c2ccncc2)cc1 (stereo unspecified) | 13.6
